# assayed.system: KRAS G12D (Homo sapiens (Human), UniProt P01116+P62937, G12D)
# Sequence (P01116-2 other isoform, or with tags, fused parts or gaps G12D): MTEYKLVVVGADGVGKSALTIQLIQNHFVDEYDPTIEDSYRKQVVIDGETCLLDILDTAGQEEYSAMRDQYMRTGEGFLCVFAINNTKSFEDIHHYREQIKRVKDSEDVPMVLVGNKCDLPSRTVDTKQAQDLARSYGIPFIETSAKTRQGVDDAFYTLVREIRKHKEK
# Sequence (P62937 whole entry): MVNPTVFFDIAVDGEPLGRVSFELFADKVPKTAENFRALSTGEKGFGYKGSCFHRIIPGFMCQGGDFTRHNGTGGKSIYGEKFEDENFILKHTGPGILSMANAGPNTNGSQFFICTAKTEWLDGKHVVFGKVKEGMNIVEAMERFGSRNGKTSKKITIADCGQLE
# protocol.text: Ras-Raf (BRAF RBD) disruption / FRET / MOA assay, KRAS G12D
# Format: biochemical
# experimental.context: Ras-Raf disruption/FRET/MOA assay; class symbols; read-out: KRAS G12D FRET data IC50
endpoint: IC50

input: Find the measured IC50 of C=CC(=O)N1CCOC2(CCN(C(=O)N(C)[C@H](C(=O)N[C@H]3Cc4nc(n(C)n4)-c4ccc5c(c4)c(c(-c4cccnc4[C@H](C)OC)n5CC(F)(F)F)CC(C)(C)COC(=O)[C@@H]4CCCN(N4)C3=O)C(C)C)CC2)C1 (atropisomer, axis not shown) and report it.
output: 1 to 10 µM

input: Find the measured IC50 of `CCn1c(-c2cnccc2COC)c2c3cc(ccc31)-c1cc(O)cc(c1)C[C@H](NC(=O)[C@H](C(C)C)N(C)C(=O)[C@H]1CCN(C(=O)C(C)(C)N(C)C)C1)C(=O)N1CCC[C@H](N1)C(=O)OCC(C)(C)C2` and report it.
output: 0.1 to 1 µM

input: Find the measured IC50 of C=CC(=O)N1CC[C@H](C(=O)N(C)[C@H](C(=O)N[C@H]2Cc3cccc(c3)-c3ccc4c(c3)c(c(-c3ccccc3[C@H](C)OC)n4CC)CC(C)(C)COC(=O)[C@@H]3CCCN(N3)C2=O)C(C)C)C1 (atropisomer, axis not shown) and report it.
output: > 10 µM

input: Find the measured IC50 of `C=CC(=O)N1CC[C@H](C(=O)N(C)[C@H](C(=O)N[C@H]2Cc3cc(O)cc(c3)-c3ccc4c(c3)c(c(-c3cccnc3CNC)n4CC)CC(C)(C)COC(=O)[C@@H]3CCCN(N3)C2=O)C(C)C)C1` and report it.
output: > 10 µM

input: Find the measured IC50 of C=CC(=O)N(C)[C@@H]1C[C@@H](C)N(C(=O)N(C)[C@H](C(=O)N[C@H]2Cc3nc(cs3)-c3ccc4c(c3)c(c(-c3cccnc3[C@H](C)OC)n4CC)CC(C)(C)COC(=O)[C@@H]3CCCN(N3)C2=O)C(C)C)C1 (atropisomer, axis not shown) and report it.
output: 1 to 10 µM

input: Find the measured IC50 of C/C=C(\C)S(=O)(=O)N1CC[C@H](C(=O)N(C)[C@H](C(=O)N[C@H]2Cc3cc(O)cc(c3)-c3ccc4c(c3)c(c(-c3cccnc3[C@H](C)OC)n4CC)CC(C)(C)COC(=O)[C@@H]3CCCN(N3)C2=O)C(C)C)C1 (atropisomer, axis not shown) and report it.
output: 1 to 10 µM

input: Find the measured IC50 of C=CC(=O)N1CC2(C1)OCCCN2C(=O)N(C)[C@H](C(=O)N[C@H]1Cc2nc(cs2)-c2ccc3c(c2)c(c(-c2cccnc2[C@H](C)OC)n3CC)CC(C)(C)COC(=O)[C@@H]2CCCN(N2)C1=O)C(C)C (atropisomer, axis not shown) and report it.
output: > 10 µM

input: Find the measured IC50 of C=CC(=O)N1CCO[C@@H]2CCN(C(=O)N(C)[C@H](C(=O)N[C@H]3Cc4nc(cs4)-c4ccc5c(c4)c(c(-c4cccnc4[C@H](C)OC)n5CC)CC(C)(C)COC(=O)[C@@H]4CCCN(N4)C3=O)C(C)C)C[C@@H]21 (atropisomer, axis not shown) and report it.
output: 1 to 10 µM

input: Find the measured IC50 of `COCc1ncccc1-c1nc2ccc3cc2n1CC(C)(C)COC(=O)[C@@H]1CCCN(N1)C(=O)[C@@H](NC(=O)[C@H](C(C)C)N(C)C(=O)[C@H]1CCN(C(=O)C#CCN2CCOCC2)C1)Cc1cc(O)cc-3c1` and report it.
output: > 10 µM

input: Find the measured IC50 of `C=CC(=O)N1CCO[C@H]2CN(C(=O)N(C)[C@H](C(=O)N[C@H]3C[C@H]4CN(CCO4)c4ccc5c(c4)c(c(-c4cccnc4[C@H](C)OC)n5CC)CC(C)(C)COC(=O)[C@@H]4CCCN(N4)C3=O)C(C)C)C[C@H]21` and report it.
output: 1 to 10 µM

input: Find the measured IC50 of C=C(C)C(=O)N1CC(N(C)C(=O)N(C)[C@H](C(=O)N[C@H]2Cc3nc(cs3)-c3ccc4c(c3)c(c(-c3cccnc3[C@H](C)OC)n4CC)CC(C)(C)COC(=O)[C@@H]3CCCN(N3)C2=O)C(C)C)C1 (atropisomer, axis not shown) and report it.
output: 1 to 10 µM

input: Find the measured IC50 of CC#CC(=O)N1CCC(C(=O)N(C)[C@H](C(=O)N[C@H]2Cc3nc(cs3)-c3ccc4c(c3)c(c(-c3cccnc3[C@H](C)OC)n4CC)CC(C)(C)COC(=O)[C@@H]3CCCN(N3)C2=O)C(C)C)C1 (atropisomer, axis not shown) and report it.
output: > 10 µM

input: Find the measured IC50 of CCn1c(-c2cccnc2[C@H](C)OC)c2c3cc(ccc31)-c1cccc(c1)C[C@H](NC(=O)[C@H](C(C)C)N(C)C(=O)[C@H]1CCN(C(=O)/C=C/CN3CC(OC)C3)C1)C(=O)N1CCC[C@H](N1)C(=O)OCC(C)(C)C2 (atropisomer, axis not shown) [Example A204] and report it.
output: > 10 µM

input: Find the measured IC50 of CCn1c(-c2cccnc2[C@H](C)OC)c2c3cc(ccc31)-c1cccc(c1)C[C@H](NC(=O)[C@@H](COC1CN(C(=O)C#CC(C)(C)N(C)C3CC3)C1)C(C)C)C(=O)N1CCC[C@H](N1)C(=O)OCC(C)(C)C2 (atropisomer, axis not shown) and report it.
output: > 10 µM

input: Find the measured IC50 of `CCn1c(-c2cccnc2[C@H](C)OC)c2c3cc(ccc31)-c1cccc(c1)C[C@H](NC(=O)[C@H](C(C)C)N(C)C(=O)[C@H]1CCN(C(=O)C#C[C@@H]3COCCN3C)C1)C(=O)N1CCC[C@H](N1)C(=O)OCC(C)(C)C2` and report it.
output: > 10 µM

// data source = patent US11566007B2
